Biological target: UniProtKB Q8TDV5
Sequence (Q8TDV5 1-335): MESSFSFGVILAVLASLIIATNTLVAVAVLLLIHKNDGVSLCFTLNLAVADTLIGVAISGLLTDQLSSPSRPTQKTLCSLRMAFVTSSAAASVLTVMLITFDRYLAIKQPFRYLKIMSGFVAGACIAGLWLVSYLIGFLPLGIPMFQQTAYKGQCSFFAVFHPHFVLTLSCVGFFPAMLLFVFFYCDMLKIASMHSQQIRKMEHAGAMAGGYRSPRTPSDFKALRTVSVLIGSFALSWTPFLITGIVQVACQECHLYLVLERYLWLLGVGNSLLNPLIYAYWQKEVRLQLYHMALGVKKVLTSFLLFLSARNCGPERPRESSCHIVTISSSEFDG
Experiment: AlphaScreen cAMP assay in Min-6/hGPR119 cells (activation of GPR119, stimulation of intracellular cAMP)
Settings: MIN6 cells stably transfected with human GPR119; 45 min incubation at room temperature; cAMP by AlphaScreen
pEC50 for assorted compounds
Give only the number. pEC50 is defined as minus log10 of concentration in molar units.

For orientation, consider the following solved cases.
# chemicalSmiles, testValue
measured = [
    ("CC(C)(C)OC(=O)N1CCC(c2cc3cc(-c4ccc(S(C)(=O)=O)c(F)c4)ncc3o2)CC1", 7.21),
    ("CC(C)(C)OC(=O)N1CCC(c2cc3cc(-c4ccc(NS(C)(=O)=O)cc4)ncc3o2)CC1", 6.92),
    ("CC(C)(C)OC(=O)N1CCC(c2cc3cc(C4=CCN(S(C)(=O)=O)CC4)ncc3o2)CC1", 8.05),
]

Prompt: For CC(C)(C)OC(=O)N1CCC(c2cc3cc(-c4ccncc4F)ncc3o2)CC1 , write its pEC50.
Response: 6.63

Prompt: Return reported pEC50. Input compound: CS(=O)(=O)N1CC=C(c2cc3cc(C4CCN(c5ncc(Cl)cn5)CC4)oc3cn2)CC1
Response: 7.39

Prompt: Give reported pEC50 value for CC(C)(C)OC(=O)N1CCC(c2cc3cc(-c4ccc(S(C)(=O)=O)cc4F)ncc3o2)CC1
Response: 8.05

Prompt: Return the recorded pEC50 value; entry: CCNC(=O)c1ccc(-c2cc3cc(C4CCN(C(=O)OC(C)(C)C)CC4)oc3cn2)cc1
Response: 7.35

Prompt: Return value of pEC50 for input CC1(OC(=O)N2CCC(c3cc4cc(-c5ccc(S(C)(=O)=O)cc5F)ncc4o3)CC2)CC1 , no commentary.
Response: 7.89

Prompt: # return recorded pEC50 for entry CS(=O)(=O)N1CC=C(c2cc3cc(C4CCN(c5nnc(C(F)(F)F)s5)CC4)oc3cn2)CC1
Response: 7.74

Prompt: Supply measured pEC50 of CC(C)(C)OC(=O)N1CCC(c2cc3cc(-c4ccc(C(N)=O)cc4F)ncc3o2)CC1 in your reply.
Response: 6.97

Prompt: # return recorded pEC50 for entry CC(C)(C)OC(=O)N1CCC(c2cc3cc(-c4ccc(CS(C)(=O)=O)cc4)ncc3o2)CC1
Response: 6.98

Prompt: Complete the entry with pEC50 for CC(C)(C)OC(=O)N1CCC(C)(c2cc3cc(C4=CCN(S(C)(=O)=O)CC4)ncc3o2)CC1
Response: 7.14

Prompt: Note down pEC50 recorded for CC(C)(C)OC(=O)N1CCC(c2cc3cc(-c4ccc(S(C)(=O)=O)cc4)ncc3o2)CC1
Response: 7.24

Prompt: Assign pEC50 to the following record: CCc1cnc(N2CCC(c3cc4cc(-c5ccc(S(C)(=O)=O)cc5F)ncc4o3)CC2)nc1
Response: 7.19

###

# key: entry, value: EC50
target: human GPR119 (Homo sapiens, UniProt Q8TDV5); assay: AlphaScreen cAMP assay in Min-6/hGPR119 cells (activation of GPR119, stimulation of intracellular cAMP); details: MIN6 cells stably transfected with human GPR119; 45 min incubation at room temperature; cAMP by AlphaScreen

Worked examples, 8 molecules total:
# chemicalSmiles, EC50
rows = [
    ("CC(C)OC(=O)N1CCC(c2cc3cc(-c4ccc(S(C)(=O)=O)cc4F)ncc3o2)CC1", "12 nM"),
    ("CS(=O)(=O)N1CC=C(c2cc3cc(C4CCN(CC5(C(F)(F)F)CC5)CC4)oc3cn2)CC1", "28 nM"),
    ("CC(C)(C)OC(=O)N1CCC(c2cc3cc(-c4cnco4)ncc3o2)CC1", "592 nM"),
    ("CC(C)(C)OC(=O)N1CCC(C)(c2cc3cc(-c4ccc(S(C)(=O)=O)cc4)ncc3o2)CC1", "140 nM"),
    ("CS(=O)(=O)N1CC=C(c2cc3cc(C4CCN(c5ccc(C(F)(F)F)cn5)CC4)oc3cn2)CC1", "86 nM"),
    ("CC(C)(C)OC(=O)N1CCC(c2cc3cc(-c4ccc(C#N)c(F)c4)ncc3o2)CC1", "263 nM"),
    ("CC(C)(C)OC(=O)N1CCC(c2cc3cc(-c4ccc(C(=O)OCc5ccccc5)cc4)ncc3o2)CC1", "567 nM"),
    ("CC(C)OC(=O)N1CCC(c2cc3cc(C4=CCN(S(C)(=O)=O)CC4)ncc3o2)CC1", "19 nM"),
]

Prompt: Please give measured EC50 of the following entry: CS(=O)(=O)c1ccc(-c2cc3cc(C4CCN(CC5(C(F)(F)F)CC5)CC4)oc3cn2)c(F)c1
Response: 51 nM

Prompt: Annotate the molecule CC(C)(F)CN1CCC(c2cc3cc(-c4ccc(S(C)(=O)=O)cc4F)ncc3o2)CC1 with its measured EC50.
Response: 79 nM

Prompt: Provide EC50 value for the following molecule: CC(C)(C)OC(=O)N1CCC(c2cc3cc(-c4ccncc4)ncc3o2)CC1
Response: 310 nM

Prompt: Determine its reported EC50: CC(C)(C)OC(=O)N1CCC(c2cc3cc(N4CCN(S(C)(=O)=O)CC4)ncc3o2)CC1
Response: 82 nM

Prompt: Identify measured EC50 corresponding to CC(C)(C)OC(=O)N1CCC(c2cc3cc(-c4ccc(C#N)cc4F)ncc3o2)CC1
Response: 281 nM

Prompt: Determine its reported EC50: CC1(OC(=O)N2CCC(c3cc4cc(C5=CCN(S(C)(=O)=O)CC5)ncc4o3)CC2)CC1
Response: 10 nM
